System: Plasmodium falciparum
protocol_notes: Antimalarial activity against chloroquine-sensitive Plasmodium falciparum D6 assessed as inhibition of [3H]hypoxanthine incorporation after 96 hrs by microtiter plate scintillation counting
Type: functional, organism-based
property_name: pIC50
# reply with the number alone; pIC50 is -log10 of concentration in mol/L

Consider the reported pIC50 for these molecules:
- CC[C@H]1OC(=O)[C@H](C)[C@@H](O[C@H]2C[C@@](C)(OC)[C@@H](O)[C@H](C)O2)[C@H](C)[C@@H](O[C@@H]2O[C@H](C)C[C@H](N(C)C)[C@H]2O)[C@](C)(O)C[C@@H](C)CN(CCCNC(=S)Nc2cccc(C(F)(F)F)c2)[C@H](C)[C@@H](O)[C@]1(C)O: 6.92
- CC[C@H]1OC(=O)[C@H](C)[C@@H](O[C@H]2C[C@@](C)(OC)[C@@H](O)[C@H](C)O2)[C@H](C)[C@@H](O[C@@H]2O[C@H](C)C[C@H](N(C)C)[C@H]2O)[C@](C)(O)C[C@@H](C)CN(CCCNC(=S)Nc2cccnc2)[C@H](C)[C@@H](O)[C@]1(C)O: 5.92
- CC[C@H]1OC(=O)[C@H](C)[C@@H](O[C@H]2C[C@@](C)(OC)[C@@H](O)[C@H](C)O2)[C@H](C)[C@@H](O[C@@H]2O[C@H](C)C[C@H](N(C)C)[C@H]2O)[C@](C)(O)C[C@@H](C)CN(CCCNC(=S)Nc2ccc(C)cc2)[C@H](C)[C@@H](O)[C@]1(C)O: 6.48
- CC[C@H]1OC(=O)[C@H](C)[C@@H](O[C@H]2C[C@@](C)(OC)[C@@H](O)[C@H](C)O2)[C@H](C)[C@@H](O[C@@H]2O[C@H](C)C[C@H](N(C)C)[C@H]2O)[C@](C)(O)C[C@@H](C)CN(CCCNC(=O)Nc2ccc(OC)c(OC3CCCC3)c2)[C@H](C)[C@@H](O)[C@]1(C)O: 6.35
- CC[C@H]1OC(=O)[C@H](C)[C@@H](O[C@H]2C[C@@](C)(OC)[C@@H](O)[C@H](C)O2)[C@H](C)[C@@H](O[C@@H]2O[C@H](C)C[C@H](N(C)C)[C@H]2O)[C@](C)(O)C[C@@H](C)CN(CCCNC(=O)Nc2cc(C(=O)OC)cc(C(=O)OC)c2)[C@H](C)[C@@H](O)[C@]1(C)O: 6.19

Indicate the recorded pIC50 value for this molecule: CC[C@H]1OC(=O)[C@H](C)[C@@H](O[C@H]2C[C@@](C)(OC)[C@@H](O)[C@H](C)O2)[C@H](C)[C@@H](O[C@@H]2O[C@H](C)C[C@H](N(C)C)[C@H]2O)[C@](C)(O)C[C@@H](C)CN(CCCNC(=S)Nc2ccc(F)cc2)[C@H](C)[C@@H](O)[C@]1(C)O 6.50

Indicate the recorded pIC50 value for this molecule: CC[C@H]1OC(=O)[C@H](C)[C@@H](O[C@H]2C[C@@](C)(OC)[C@@H](O)[C@H](C)O2)[C@H](C)[C@@H](O[C@@H]2O[C@H](C)C[C@H](N(C)C)[C@H]2O)[C@](C)(O)C[C@@H](C)CN(CCCNC(=S)Nc2cccc(F)c2)[C@H](C)[C@@H](O)[C@]1(C)O 6.29

====

Test system: Plasmodium falciparum
protocol_notes: Antimalarial activity against chloroquine-,pyrimethamine-resistant Plasmodium falciparum W2 assessed as inhibition of [3H]hypoxanthine incorporation after 96 hrs by microtiter plate scintillation counting
Format: functional, organism-based
// reported pIC50 per item
# reply with the number alone; pIC50 is -log10 of concentration in mol/L

Consider the reported pIC50 for these compounds:
• CC[C@H]1OC(=O)[C@H](C)[C@@H](O[C@H]2C[C@@](C)(OC)[C@@H](O)[C@H](C)O2)[C@H](C)[C@@H](O[C@@H]2O[C@H](C)C[C@H](N(C)C)[C@H]2O)[C@](C)(O)C[C@@H](C)CN(CCCNC(=O)NC(C)(C)C)[C@H](C)[C@@H](O)[C@]1(C)O = 6.39
• CC[C@H]1OC(=O)[C@H](C)[C@@H](O[C@H]2C[C@@](C)(OC)[C@@H](O)[C@H](C)O2)[C@H](C)[C@@H](O[C@@H]2O[C@H](C)C[C@H](N(C)C)[C@H]2O)[C@](C)(O)C[C@@H](C)CN(CCCNC(=S)Nc2ccc(Cl)c(Cl)c2)[C@H](C)[C@@H](O)[C@]1(C)O = 6.64

// fetch pIC50; item: CC[C@H]1OC(=O)[C@H](C)[C@@H](O[C@H]2C[C@@](C)(OC)[C@@H](O)[C@H](C)O2)[C@H](C)[C@@H](O[C@@H]2O[C@H](C)C[C@H](N(C)C)[C@H]2O)[C@](C)(O)C[C@@H](C)CN(CCCNC(=S)Nc2ccc(-n3cccn3)cc2)[C@H](C)[C@@H](O)[C@]1(C)O ; system: Plasmodium falciparum 6.96

// fetch pIC50; item: CC[C@H]1OC(=O)[C@H](C)[C@@H](O[C@H]2C[C@@](C)(OC)[C@@H](O)[C@H](C)O2)[C@H](C)[C@@H](O[C@@H]2O[C@H](C)C[C@H](N(C)C)[C@H]2O)[C@](C)(O)C[C@@H](C)CN(CCCNC(=S)NC(c2ccccc2)(c2ccccc2)c2ccccc2)[C@H](C)[C@@H](O)[C@]1(C)O ; system: Plasmodium falciparum 7.43
